# Tested on: P388 leukemia ip, CD2F1 mice, survival T/C
# test: NCI In Vivo Anticancer Drug Screen. Data for tumor model P388 Leukemia (intraperitoneal) in CD2F1 (CDF1) mice
# experimental.setup: endpoint: median survival time; dose: 100.0 mg/kg/injection; schedule: Q01DX009 (ip); vehicle: suspension in saline; higher = longer survival
Inconclusive results and toxic doses are left out.
Give T/C for every item shown.

Exercise: Look at this compound and give its reported T/C. CC1=CC(O/C=C2\C(=O)OC3c4ccccc4CC23)OC1=O (configuration not stated)
Solution: 108 % of control

Exercise: Look at this compound and give its reported T/C. O=[N+]([O-])c1c(N2CCN(CCO)CC2)ccc2nonc12
Solution: 108 % of control

Exercise: Look at this compound and give its reported T/C. COC(=O)CC1(O)C(=O)OCc2c1cc1n(c2=O)Cc2c-1nc1ccccc1c2OC (configuration not stated)
Solution: 86 % of control

Exercise: Look at this compound and give its reported T/C. COc1ccc2cc1Oc1ccc(cc1)C[C@H]1c3cc(c(OC)cc3CCN1C)Oc1c(O)c(OC)cc3c1[C@H](C2)N(C)CC3
Solution: 102 % of control

Exercise: Look at this compound and give its reported T/C. C[N+](C)(C)/C=C/c1ccc([N+](=O)[O-])o1
Solution: 96 % of control

Exercise: Look at this compound and give its reported T/C. Nc1ncnc2c1ncn2C1OCC(O)C1O (configuration not stated)
Solution: 112 % of control

Exercise: Look at this compound and give its reported T/C. COc1ccc(C(CC(=O)O)C(N)C(=O)O)cc1 (configuration not stated)
Solution: 87 % of control
